system: NCI-H3122 (Lung Adenocarcinoma); assay: Bliss excess, mean over the matrix (fraction); higher = more synergy;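 further: after 72 h of two-drug dosing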

{"molecule": "COc1nnc2ccc(N3CCC(c4ccc(OCCN5CCN(C)C(=O)[C@H]5C)cc4)CC3)nn12 [AZD5153] + Cc1c2c(nn1C)CSCc1cc(n(C)n1)CSc1cc(c3ccccc3c1)OCCCc1c(C(=O)O)n(C)c3c-2c(Cl)ccc13 [AZD5991] (first compound max 1 µM, 7x7, partner max 1 µM)", "Bliss excess": -0.0279}
{"molecule": "CN(C)CCCOc1ccc(-c2ccc3ncc4c(c3c2)n(C2CCOCC2)c(=O)n4C)cn1 [AZD0156] + O=C(c1cc(Cc2n[nH]c(=O)c3ccccc23)ccc1F)N1CCN(C(=O)C2CC2)CC1 [Olaparib] (first compound max 3 µM, partner max 3 µM)", "Bliss excess": -0.0062}
{"molecule": "C[C@@H]1COCCN1c1cc(C2([S@](C)(=N)=O)CC2)nc(-c2ccnc3[nH]ccc23)n1 [AZD6738] + O=C(c1cc(Cc2n[nH]c(=O)c3ccccc23)ccc1F)N1CCN(C(=O)C2CC2)CC1 [Olaparib] (first compound max 10 µM, 7x7, partner max 10 µM)", "Bliss excess": 0.0446}
{"molecule": "COc1cccc2c1C(=O)c1c(O)c3c(c(O)c1C2=O)C[C@@](O)(C(=O)CO)C[C@@H]3O[C@H]1C[C@H](N)[C@H](O)[C@H](C)O1 [Doxorubicin] + Cc1cc2ncnn2cc1Nc1ncc2c(n1)n(C1CCOCC1)c(=O)n2C [AZD7648] (first compound max 1 µM, 7x7, partner max 10 µM)", "Bliss excess": 0.031}
{"molecule": "CC1(C)CCC(CN2CCN(c3ccc(C(=O)NS(=O)(=O)c4ccc(NCC5CCOCC5)c([N+](=O)[O-])c4)c(Oc4cnc5[nH]ccc5c4)c3)CC2)=C(c2ccc(Cl)cc2)C1 [Venetoclax] + C[C@@H]1COCCN1C2=NC(=NC(=C2)C3(CC3)[S@](=N)(=O)C)C4=C5C=CNC5=NC=C4 [AZD6738] (first compound max 1 µM, 7x7, partner max 10 µM)", "Bliss excess": -0.0649}
{"molecule": "CN(CCO)CC[C@H](CSc1ccccc1)Nc1ccc(S(=O)(=O)NC(=O)c2ccc(N3CCC([C@@H](O)c4ccccc4-c4ccc(Cl)cc4)CC3)cc2)cc1S(=O)(=O)C(F)(F)F [AZD4320] + C[C@@H](Nc1cc(F)cc(F)c1)c1cc(C(=O)N(C)C)cc2c(=O)cc(N3CCOCC3)oc12 [AZD8186] (first compound max 1 µM, 7x7, partner max 3 µM)", "Bliss excess": 0.0005}
{"molecule": "COc1nnc2ccc(N3CCC(c4ccc(OCCN5CCN(C)C(=O)[C@H]5C)cc4)CC3)nn12 [AZD5153] + C=CCn1c(=O)c2cnc(Nc3ccc(N4CCN(C)CC4)cc3)nc2n1-c1cccc(C(C)(C)O)n1 [AZD1775] (first compound max 1 µM, partner max 1 µM)", "Bliss excess": -0.0461}
{"molecule": "COc1cc2c(cc1OCCCCCOc1cc3c(cc1OC)C(=O)N1C=C(C)C[C@H]1C=N3)N=C[C@@H]1CC(C)=CN1C2=O [SG3199] + O=C(c1cc(Cc2n[nH]c(=O)c3ccccc23)ccc1F)N1CCN(C(=O)C2CC2)CC1 [Olaparib] (first compound max 0.001 µM, 7x7, partner max 10 µM)", "Bliss excess": -0.0385}
{"molecule": "CS(=O)(=O)CCNCc1ccc(-c2ccc3ncnc(Nc4ccc(OCc5cccc(F)c5)c(Cl)c4)c3c2)o1 [Lapatinib] + NC1(c2ccc(-c3nc4ccn5c(=O)[nH]nc5c4cc3-c3ccccc3)cc2)CCC1 [MK-2206] (first compound max 10 µM, 7x7, partner max 10 µM)", "Bliss excess": -0.0497}
{"molecule": "Cc1c2c(nn1C)CSCc1cc(n(C)n1)CSc1cc(c3ccccc3c1)OCCCc1c(C(=O)O)n(C)c3c-2c(Cl)ccc13 [AZD5991] + CC(=O)O[C@H]1C(=O)[C@@]2(C)[C@H]([C@H](OC(=O)c3ccccc3)[C@]3(O)C[C@H](OC(=O)[C@H](O)[C@@H](NC(=O)c4ccccc4)c4ccccc4)C(C)=C1C3(C)C)[C@]1(OC(C)=O)CO[C@@H]1C[C@@H]2O [Paclitaxel] (first compound max 1 µM, 7x7, partner max 3 µM)", "Bliss excess": -0.0003}
{"molecule": "CN(CCO)CC[C@H](CSc1ccccc1)Nc1ccc(S(=O)(=O)NC(=O)c2ccc(N3CCC([C@@H](O)c4ccccc4-c4ccc(Cl)cc4)CC3)cc2)cc1S(=O)(=O)C(F)(F)F [AZD4320] + CN(C)CCCOc1ccc(-c2ccc3ncc4c(c3c2)n(C2CCOCC2)c(=O)n4C)cn1 [AZD0156] (first compound max 1 µM, 7x7, partner max 1 µM)", "Bliss excess": -0.0486}
{"molecule": "CS(=O)(=O)CCNCc1ccc(-c2ccc3ncnc(Nc4ccc(OCc5cccc(F)c5)c(Cl)c4)c3c2)o1 [Lapatinib] + Cn1cnc2c(F)c(Nc3ccc(Br)cc3Cl)c(C(=O)NOCCO)cc21 [Selumetinib] (first compound max 10 µM, 7x7, partner max 10 µM)", "Bliss excess": 0.0083}
{"molecule": "CC1(C)CCC(CN2CCN(c3ccc(C(=O)NS(=O)(=O)c4ccc(NCC5CCOCC5)c([N+](=O)[O-])c4)c(Oc4cnc5[nH]ccc5c4)c3)CC2)=C(c2ccc(Cl)cc2)C1 [Venetoclax] + Cc1cc2ncnn2cc1Nc1ncc2c(n1)n(C1CCOCC1)c(=O)n2C [AZD7648] (first compound max 1 µM, 7x7, partner max 10 µM)", "Bliss excess": -0.0201}

The values you see were collected from the supplement of paper PMC11061612.
